- Experiment: Serum concentrations in mice after sub-cutaneous injection, microbiological assay
- Assay type: in vivo
- Settings: mouse, sc, 50 mg/kg sub-cutaneous, 4 hr, average, read-out: Serum concentrations at time after dosing
Measured metric: concentration at 4 h (ng/mL)

A = N[C@@H](C(=O)N[C@@H]1C(=O)N2C(C(=O)O)=C(Cc3ccc(C(=O)O)cc3)CS[C@H]12)c1ccccc1 [p-carboxy isomer]
B = N[C@@H](C(=O)N[C@@H]1C(=O)N2C(C(=O)O)=C(Cc3ccccc3C(=O)O)CS[C@H]12)c1ccccc1 [o-carboxy isomer]
C = N[C@@H](C(=O)N[C@@H]1C(=O)N2C(C(=O)O)=C(Cc3cccc(C(=O)O)c3)CS[C@H]12)c1ccccc1 [m-carboxy isomer]
Put the listed items above in order, lowest concentration at 4 h first. Please, when replying, give the labels in the order that was requested.
C, A, B
(C: 1600 ng/mL, A: 9300 ng/mL, B: 31000 ng/mL)

----------
- Experiment: Serum concentrations in mice after sub-cutaneous injection, microbiological assay
- Assay type: in vivo
- Settings: mouse, sc, 50 mg/kg sub-cutaneous, 20 min, average, read-out: Serum concentrations at time after dosing
Measured metric: concentration at 20 min (µg/mL)

compound="Cc1nnc(SCC2=C(C(=O)O)N3C(=O)[C@@H](NC(=O)Cn4cnnn4)[C@H]3SC2)s1 [Cefazolin, reference compound]" units_symbol=µg/mL reported_value=37
compound="N[C@@H](C(=O)N[C@@H]1C(=O)N2C(C(=O)O)=C(Cc3ccccc3C(=O)O)CS[C@H]12)c1ccccc1 [o-carboxy isomer]" units_symbol=µg/mL reported_value=66
compound="N[C@@H](C(=O)N[C@@H]1C(=O)N2C(C(=O)O)=C(Cc3cccc(C(=O)O)c3)CS[C@H]12)c1ccccc1 [m-carboxy isomer]" units_symbol=µg/mL reported_value=64
compound="N[C@@H](C(=O)N[C@@H]1C(=O)N2C(C(=O)O)=C(Cc3ccc(C(=O)O)cc3)CS[C@H]12)c1ccccc1 [p-carboxy isomer]" units_symbol=µg/mL reported_value=87

----------
- Experiment: Serum concentrations in mice after sub-cutaneous injection, microbiological assay
- Assay type: in vivo
- Settings: mouse, sc, 50 mg/kg sub-cutaneous, 60 min, average, read-out: Serum concentrations at time after dosing
Measured metric: concentration at 1 h (ng/mL)

compound="N[C@@H](C(=O)N[C@@H]1C(=O)N2C(C(=O)O)=C(Cc3ccccc3C(=O)O)CS[C@H]12)c1ccccc1 [o-carboxy isomer]" units_symbol=ng/mL reported_value=49000

a = N[C@@H](C(=O)N[C@@H]1C(=O)N2C(C(=O)O)=C(Cc3cccc(C(=O)O)c3)CS[C@H]12)c1ccccc1 [m-carboxy isomer]
b = N[C@@H](C(=O)N[C@@H]1C(=O)N2C(C(=O)O)=C(Cc3ccc(C(=O)O)cc3)CS[C@H]12)c1ccccc1 [p-carboxy isomer]
Would you let me know which has the greater concentration at 1 h value, a or b ? Pick one; state its label.
b

----------
- Test system: Klebsiella aerogenes A
Measured metric: MIC (µg/mL)
Reply with just the number (in µg/mL).

Guide cases for MIC, answers given:
molecule="N[C@@H](C(=O)N[C@@H]1C(=O)N2C(C(=O)O)=C(Cc3ccccc3C(=O)O)CS[C@H]12)c1ccccc1 [LV]" measured_target="Klebsiella aerogenes A" reported_value=5
molecule="CN(N=Cc1ccccc1)C(=O)N[C@@H](C(=O)N[C@@H]1C(=O)N2C(C(=O)O)=C(Cc3ccc(C(=O)O)cc3)CS[C@H]12)c1ccccc1 [XIX]" measured_target="Klebsiella aerogenes A" reported_value=5

// fetch Klebsiella aerogenes A MIC for N[C@@H](C(=O)N[C@@H]1C(=O)N2C(C(=O)O)=C(Cc3cccc(C(=O)O)c3)CS[C@H]12)c1ccccc1 [XLI]
2.5

// fetch Klebsiella aerogenes A MIC for NC(=O)N[C@H](Cc1c[nH]c2ccccc12)C(=O)N[C@@H](C(=O)N[C@@H]1C(=O)N2C(C(=O)O)=C(Cc3ccc(C(=O)O)cc3)CS[C@H]12)c1ccccc1 [XXVI]
5

// fetch Klebsiella aerogenes A MIC for CN(C(=O)C=Cc1ccccc1)C(=O)N[C@@H](C(=O)N[C@@H]1C(=O)N2C(C(=O)O)=C(Cc3ccc(C(=O)O)cc3)CS[C@H]12)c1ccccc1 [XXI]
5

----------
Reported MIC values, Salmonella typhi.
Reply with just the number (in µg/mL).

molecule="N[C@@H](C(=O)N[C@@H]1C(=O)N2C(C(=O)O)=C(Cc3ccc(C(=O)O)cc3)CS[C@H]12)c1ccccc1.O=C(O)C(F)(F)F [XIII]" measured_metric=MIC reported_value=0.5
molecule="CN(C(=O)C=Cc1ccccc1)C(=O)N[C@@H](C(=O)N[C@@H]1C(=O)N2C(C(=O)O)=C(Cc3ccc(C(=O)O)cc3)CS[C@H]12)c1ccccc1 [XXI]" measured_metric=MIC reported_value=12.5

Which MIC value belongs to N[C@@H](C(=O)N[C@@H]1C(=O)N2C(C(=O)O)=C(Cc3ccc(C(=O)O)cc3)CS[C@H]12)c1ccc(O)cc1.O=C(O)C(F)(F)F [XVII] ?
5

----------
Reported MIC values, Salmonella typhi.
Reply with just the number (in µg/mL).

smiles_repr=O=C(Cc1cccs1)N[C@@H]1C(=O)N2C(C(=O)O)=C(Cc3ccc(C(=O)O)cc3)CS[C@H]12 measured_target="Salmonella typhi" measured_metric=MIC units_symbol=µg/mL reported_value=5

// fetch Salmonella typhi MIC for `CN(N=Cc1ccccc1)C(=O)N[C@@H](C(=O)N[C@@H]1C(=O)N2C(C(=O)O)=C(Cc3ccc(C(=O)O)cc3)CS[C@H]12)c1ccccc1`
5

// fetch Salmonella typhi MIC for `O=C(O)C1=C(Cc2ccc(C(=O)O)cc2)CS[C@@H]2[C@H](NC(=O)[C@H](O)c3ccccc3)C(=O)N12`
5

----------
- Experiment: Serum concentrations in mice after sub-cutaneous injection, microbiological assay
- Assay type: in vivo
- Settings: mouse, sc, 50 mg/kg sub-cutaneous, 2 hr, average, read-out: Serum concentrations at time after dosing
- Protocol: Each compound was injected sub-cutaneously into groups of mice at a dose of 50 mg/kg, and serum samples were taken at timed intervals thereafter and assayed microbiologically for their antibiotic content using the appropriate compound as standard.
Measured metric: concentration at 2 h (ng/mL)

compound="N[C@@H](C(=O)N[C@@H]1C(=O)N2C(C(=O)O)=C(Cc3cccc(C(=O)O)c3)CS[C@H]12)c1ccccc1 [m-carboxy isomer]" measured_metric="concentration at 2 h" reported_value=14000

A = N[C@@H](C(=O)N[C@@H]1C(=O)N2C(C(=O)O)=C(Cc3ccccc3C(=O)O)CS[C@H]12)c1ccccc1 [o-carboxy isomer]
B = N[C@@H](C(=O)N[C@@H]1C(=O)N2C(C(=O)O)=C(Cc3ccc(C(=O)O)cc3)CS[C@H]12)c1ccccc1 [p-carboxy isomer]
Would you let me know which has the greater concentration at 2 h value, A or B ? Pick one; state its label.
A
(A: 41000 ng/mL, B: 22000 ng/mL)

----------
Reported MIC values, Staph. aureus Oxford.
Reply with just the number (in µg/mL).

Which MIC value belongs to `N[C@@H](C(=O)N[C@@H]1C(=O)N2C(C(=O)O)=C(Cc3cccc(C(=O)O)c3)CS[C@H]12)c1ccccc1` ?
0.25

Which MIC value belongs to `NC(=O)N[C@H](Cc1c[nH]c2ccccc12)C(=O)N[C@@H](C(=O)N[C@@H]1C(=O)N2C(C(=O)O)=C(Cc3ccc(C(=O)O)cc3)CS[C@H]12)c1ccccc1` ?
0.5

Which MIC value belongs to `N[C@@H](C(=O)N[C@@H]1C(=O)N2C(C(=O)O)=C(Cc3ccc(C(=O)O)cc3)CS[C@H]12)c1ccccc1.O=C(O)C(F)(F)F` ?
0.5

Which MIC value belongs to `N[C@@H](C(=O)N[C@@H]1C(=O)N2C(C(=O)O)=C(Cc3ccc(C(=O)O)cc3)CS[C@H]12)c1ccc(O)cc1.O=C(O)C(F)(F)F` ?
2.5

Which MIC value belongs to `CN(C(=O)C=Cc1ccccc1)C(=O)N[C@@H](C(=O)N[C@@H]1C(=O)N2C(C(=O)O)=C(Cc3ccc(C(=O)O)cc3)CS[C@H]12)c1ccccc1` ?
2.5

----------
Reported MIC values, Staph. aureus Oxford.
Reply with just the number (in µg/mL).

smiles_repr=O=C(O)C1=C(Cc2cccc(C(=O)O)c2)CS[C@@H]2[C@H](NC(=O)[C@H](O)c3ccccc3)C(=O)N12 measured_metric=MIC reported_value=0.5
smiles_repr=O=C(Cc1cccs1)N[C@@H]1C(=O)N2C(C(=O)O)=C(Cc3ccc(C(=O)O)cc3)CS[C@H]12 measured_metric=MIC reported_value=0.1
smiles_repr=CN(C(=O)C=Cc1ccccc1)C(=O)N[C@@H](C(=O)N[C@@H]1C(=O)N2C(C(=O)O)=C(Cc3ccccc3C(=O)O)CS[C@H]12)c1ccccc1 measured_metric=MIC reported_value=4

Let's switch to this molecule now.
// fetch Staph. aureus Oxford MIC for `N[C@@H](C(=O)N[C@@H]1C(=O)N2C(C(=O)O)=C(Cc3ccccc3C(=O)O)CS[C@H]12)c1ccccc1`
5
